- measuredOn: T1, rat α-CGRP (1-37) (rat, C-terminal amide; N-terminal biotin when captured on the SA chip)
- T1 construct: also called rat α (1-37); α-rat
- T1 peptide: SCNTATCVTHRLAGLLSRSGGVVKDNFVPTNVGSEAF
- runDescription: Biacore, 37°C, Fab over CGRP on SA chip
readoutType: koff (s⁻¹)
Reply with just the number (in s⁻¹).

Worked examples, 4 binders total:
1) G1 variant M23 Fab (Fab, V domains shown, Fab; constant domains as m1) VH: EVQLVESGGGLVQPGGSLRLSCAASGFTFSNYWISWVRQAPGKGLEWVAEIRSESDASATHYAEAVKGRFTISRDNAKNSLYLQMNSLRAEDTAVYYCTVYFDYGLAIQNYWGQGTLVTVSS VL: EIVLTQSPATLSLSPGERATLSCKASKGVTTYVSWYQQKPGQAPRLLIYGASNRYLGIPARFSGSGSGTDFTLTISSLEPEDFAVYYCSQSYNYPYTFGQGTKLEIK | 0.000799
2) G1 variant M42 Fab (Fab, V domains shown, Fab; constant domains as m1) VH: EVQLVESGGGLVQPGGSLRLSCAASGFTFSNYWISWVRQAPGKGLEWVAEIRSKSDNSATFYAEAVKGRFTISRDNAKNSLYLQMNSLRAEDTAVYYCTVYFDYGLAIQNYWGQGTLVTVSS VL: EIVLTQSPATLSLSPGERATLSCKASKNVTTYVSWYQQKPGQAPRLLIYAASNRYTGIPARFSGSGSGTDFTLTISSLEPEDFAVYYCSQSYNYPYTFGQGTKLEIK | 0.00752
3) G1 variant M81 Fab (Fab, V domains shown, Fab; constant domains as m1) VH: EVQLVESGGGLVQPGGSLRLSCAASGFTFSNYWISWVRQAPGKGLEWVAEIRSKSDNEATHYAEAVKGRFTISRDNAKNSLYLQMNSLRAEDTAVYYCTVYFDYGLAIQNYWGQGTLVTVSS VL: EIVLTQSPATLSLSPGERATLSCKASKNVSTYVSWYQQKPGQAPRLLIYGASNRYSGIPARFSGSGSGTDFTLTISSLEPEDFAVYYCSQSYNYPYTFGQGTKLEIK | 0.00429
4) G1 variant M66 Fab (Fab, V domains shown, Fab; constant domains as m1; printed L561 read as L56I) VH: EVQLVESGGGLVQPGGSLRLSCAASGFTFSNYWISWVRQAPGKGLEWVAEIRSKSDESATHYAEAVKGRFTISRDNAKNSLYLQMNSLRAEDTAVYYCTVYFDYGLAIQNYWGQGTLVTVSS VL: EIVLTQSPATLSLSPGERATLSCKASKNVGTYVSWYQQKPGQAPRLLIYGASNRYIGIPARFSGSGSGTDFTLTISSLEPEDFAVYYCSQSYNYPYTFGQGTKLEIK | 0.00511

Shift focus to the following entry.
What koff value was documented for this binder, G1 variant M30 Fab (Fab, V domains shown, Fab; constant domains as m1) VH: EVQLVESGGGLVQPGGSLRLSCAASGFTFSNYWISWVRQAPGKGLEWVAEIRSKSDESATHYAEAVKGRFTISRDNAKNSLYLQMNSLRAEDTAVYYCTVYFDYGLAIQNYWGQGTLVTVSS VL: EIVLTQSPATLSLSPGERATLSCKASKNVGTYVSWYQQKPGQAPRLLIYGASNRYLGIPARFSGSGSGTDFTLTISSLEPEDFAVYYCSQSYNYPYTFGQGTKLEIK ?
0.00638
